# system_under_test: CYP2B6 (Homo sapiens, UniProt P20813)
# Sequence (P20813 whole entry): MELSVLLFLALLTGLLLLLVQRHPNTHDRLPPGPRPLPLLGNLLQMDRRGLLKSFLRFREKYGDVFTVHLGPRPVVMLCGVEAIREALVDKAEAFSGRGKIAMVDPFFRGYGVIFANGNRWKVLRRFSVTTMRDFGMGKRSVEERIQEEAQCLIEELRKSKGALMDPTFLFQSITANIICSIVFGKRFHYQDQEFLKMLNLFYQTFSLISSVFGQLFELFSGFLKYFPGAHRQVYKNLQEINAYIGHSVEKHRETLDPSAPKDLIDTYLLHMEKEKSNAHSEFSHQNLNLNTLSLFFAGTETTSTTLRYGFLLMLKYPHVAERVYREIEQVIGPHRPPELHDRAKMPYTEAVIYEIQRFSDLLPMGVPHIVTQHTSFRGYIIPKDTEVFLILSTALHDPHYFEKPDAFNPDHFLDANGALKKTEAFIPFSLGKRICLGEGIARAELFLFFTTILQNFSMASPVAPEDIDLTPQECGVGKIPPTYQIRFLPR
# protocol_description: Inhibition of CYP2B6 (unknown origin) at 10 uM relative to control
# Format: ADME
measured_property: inhibition at 10 µM

Quick one: inhibition at 10 µM of N#Cc1ccc(N2CCN([C@H]3C=C(c4cc5ncccc5c(=O)[nH]4)CC3)CC2)cc1 ?
≤ 23%

---

# System: MCF7
# protocol_description: Cytotoxicity against human MCF7 cells harboring wild type BRCA at 1000 nM relative to control
# Type: cell-based
# condition_parameters: mcf7, 1 µM
// reported Activity for each item listed
Field: numeric (%). Do not append units.

{"columns": ["input_smiles", "unit_info", "Activity"],
 "data": [
  ["Cn1ncnc1[C@H]1c2n[nH]c(=O)c3cc(F)cc(c23)N[C@@H]1c1ccc(F)cc1", "%", 98],
  ["N#Cc1ccc(N2CCN([C@H]3C=C(c4cc5ncccc5c(=O)[nH]4)CC3)CC2)cc1", "%", 36]
]}

Quick one: Activity of N#Cc1ccc(N2CCN(CCCc3cc4c(N)cc(F)cc4c(=O)[nH]3)CC2)cc1 ?
23

Quick one: Activity of N#Cc1ccc(N2CCN([C@H]3C=C(c4cc5c(N)cc(F)cc5c(=O)[nH]4)CC3)CC2)cc1 ?
36
